molecular target: prostate specific membrane antigen (PSMA) (UniProt Q04609 1-750, limits assumed); assay: cell-based or functional assay
Sequence (Q04609 whole entry): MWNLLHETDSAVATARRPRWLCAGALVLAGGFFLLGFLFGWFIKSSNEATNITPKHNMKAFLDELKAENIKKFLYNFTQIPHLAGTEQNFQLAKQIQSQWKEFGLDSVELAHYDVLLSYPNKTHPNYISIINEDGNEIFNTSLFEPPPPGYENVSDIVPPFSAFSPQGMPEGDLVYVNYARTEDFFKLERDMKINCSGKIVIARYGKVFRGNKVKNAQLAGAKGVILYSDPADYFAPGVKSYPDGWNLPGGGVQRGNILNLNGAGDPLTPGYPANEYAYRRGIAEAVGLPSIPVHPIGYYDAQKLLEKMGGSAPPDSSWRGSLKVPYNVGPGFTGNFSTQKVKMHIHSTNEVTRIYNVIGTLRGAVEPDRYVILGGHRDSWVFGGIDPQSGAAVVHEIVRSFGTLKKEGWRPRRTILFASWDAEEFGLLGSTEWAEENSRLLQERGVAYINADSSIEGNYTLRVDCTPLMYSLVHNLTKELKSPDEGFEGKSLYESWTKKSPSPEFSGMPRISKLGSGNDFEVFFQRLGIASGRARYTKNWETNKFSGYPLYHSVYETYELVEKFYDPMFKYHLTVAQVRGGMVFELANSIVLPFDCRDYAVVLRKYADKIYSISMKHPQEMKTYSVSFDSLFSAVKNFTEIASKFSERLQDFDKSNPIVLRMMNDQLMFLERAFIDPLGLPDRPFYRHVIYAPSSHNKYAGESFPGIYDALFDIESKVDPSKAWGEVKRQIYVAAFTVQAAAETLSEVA
readout.kind: Cell Killing (%), C4-2 cell line

{"binder": "Chimeric Anti-PSMA Antibody ADC, MMAE payload, Non-Cleavable (PEG3) linker (antibody, human IgG1, kappa, V domains shown, para-acetyl phenylalanine (pAF) at position A114 (Kabat numbering; first residue of the heavy chain constant region), conjugated to non-cleavable (PEG3) MMAE drug-linker) VH: EVQLQQSGPELVKPGTSVRISCKTSGYTFTEYTIHWVKQSHGKSLEWIGNINPNNGGTTYNQKFEDKATLTVDKSSSTAYMELRSLTSEDSAVYYCAAGWNFDYWGQGTTLTVSS VL: DIVMTQSHKFMSTSVGDRVSIICKASQDVGTAVDWYQQKPGQSPKLLIYWASTRHTGVPDRFTGSGSGTDFTLTITNVQSEDLADYFCQQYNSYPLTFGAGTKVEIKR", "result.value": 62.5}
{"binder": "Humanized Anti-PSMA Antibody Variant 2 ADC, MMAF payload, Short Cleavable (Valine-Citruline-Acetyl) linker (antibody, human IgG1, kappa, V domains shown, para-acetyl phenylalanine (pAF) at position A114 (Kabat numbering; first residue of the heavy chain constant region), conjugated to short cleavable (Valine-Citruline-Acetyl) MMAF drug-linker) VH: QVQLVQSGAEVKKPGASVKVSCKASGYTFTEYTIHWVRQAPGQRLEWMGNINPNNGGTTYNQKFEDRVTITRDTSASTAYMELSSLRSEDTAVYYCAAGWNFDYWGQGTTLTVSS VL: DIQLTQSPSFLSASVGDRVTITCKASQDVGTAVDWYQQKPGKAPKLLIYWASTRHTGVPSRFSGSGSGTEFTLTISSLQSEDFATYYCQQYNSYPLTFGGGTKVEIKR", "result.value": 91}
{"binder": "Chimeric Anti-PSMA Antibody ADC, MMAF payload, Cleavable (Val-Citruline-PEG1) linker (antibody, human IgG1, kappa, V domains shown, para-acetyl phenylalanine (pAF) at position A114 (Kabat numbering; first residue of the heavy chain constant region), conjugated to cleavable (Val-Citruline-PEG1) MMAF drug-linker) VH: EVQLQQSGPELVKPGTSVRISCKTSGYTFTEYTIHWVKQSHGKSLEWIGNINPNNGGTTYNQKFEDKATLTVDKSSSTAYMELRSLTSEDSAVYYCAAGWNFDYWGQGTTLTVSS VL: DIVMTQSHKFMSTSVGDRVSIICKASQDVGTAVDWYQQKPGQSPKLLIYWASTRHTGVPDRFTGSGSGTDFTLTITNVQSEDLADYFCQQYNSYPLTFGAGTKVEIKR", "result.value": 89.5}
